# Tested on: NOMO1
# EXPERIMENTAL_PROTOCOL: cell viability relative to DMSO control; higher = less cytotoxic
# CONDITION_LABEL: HPLM + 10% dialyzed FBS; 48 h; 0.000781 µM
Entries and their cell viability values follow.

{"columns": ["COMPOUND", "MEASUREMENT_TARGET", "cell viability"],
 "data": [
  ["Oc1ccc(/C=C/c2cc(O)cc(O)c2)cc1", "NOMO1", "108%"],
  ["CC(C)(C)C(=O)OCOP(=O)(COCCn1cnc2c(N)ncnc21)OCOC(=O)C(C)(C)C", "NOMO1", "86.9%"],
  ["C1CCC(C(CC2CCCCN2)C2CCCCC2)CC1 (centres undefined)", "NOMO1", "121%"],
  ["C[C@@H](O)[C@@H]1[C@H]2[C@@H](C)\\C(=C(/N2C1=O)C(=O)OCOC(=O)C(C)(C)C)SC3CN(C3)/C4=N/CCS4", "NOMO1", "93.2%"]
]}

----------
# Test system: SEM cells
# EXPERIMENTAL_PROTOCOL: cell viability relative to DMSO control; higher = less cytotoxic
# CONDITION_LABEL: RPMI 5 mM glucose + 10% dialyzed FBS; 48 h; 5.12 µM
RECORDED_METRIC: cell viability (%)

{"columns": ["COMPOUND", "MEASUREMENT_TARGET", "RECORDED_METRIC", "UNITS_SYMBOL", "VALUE"],
 "data": [
  ["CN1CCC(CC1)COC2=CN=C(N=C2)C3=CC(=CC=C3)CN4/N=C(\\C=C/C4=O)C5=CC(=CC=C5)C#N", "SEM cells", "cell viability", "%", 106],
  ["c1cc(CN2CCCNCCNCCCNCC2)ccc1CN1CCCNCCNCCCNCC1", "SEM cells", "cell viability", "%", 102],
  ["CC(C)[C@@H](C[S+](=O)([O-])C(C)C)N1C(=O)[C@@](C)(CC(=O)O)C[C@H](c2cccc(Cl)c2)[C@H]1c1ccc(Cl)cc1", "SEM cells", "cell viability", "%", 47.8],
  ["C[C@@H](O)[C@@H]1[C@H]2[C@@H](C)\\C(=C(/N2C1=O)C(=O)OCOC(=O)C(C)(C)C)SC3CN(C3)/C4=N/CCS4", "SEM cells", "cell viability", "%", 121]
]}

----------
Entries and their cell viability values follow.
# System: SEM cells
# EXPERIMENTAL_PROTOCOL: cell viability relative to DMSO control; higher = less cytotoxic
# CONDITION_LABEL: RPMI 5 mM glucose + 10% dialyzed FBS; 48 h; 0.0632 µM
RECORDED_METRIC: cell viability

{"columns": ["COMPOUND", "VALUE"],
 "data": [
  ["CC(=O)Nc1ccc([C@H](C)C(=O)Nc2ncc(C(C)C)s2)cc1", "109%"],
  ["CC(C)C[C@H](NC(=O)[C@@H](NC(=O)c1cccc(-c2ccccc2)n1)[C@@H](C)O)B(O)O", "9.88%"],
  ["Oc1ccc(C2CCN(c3ccnc4ccccc34)CC2)cc1O", "114%"],
  ["C[C@H]1C[C@H]2[C@@H]3CCC4=CC(=O)C=C[C@]4(C)[C@@]3(F)[C@@H](O)C[C@]2(C)[C@@]1(O)C(=O)CO", "87.1%"],
  ["COC[C@@H](NC(C)=O)C(=O)NCc1ccccc1", "99.4%"],
  ["CC1=CC=CC=C1CN2C(=O)C/3=C(/CCN(CC4=CC=CC=C4)C3)N\\5CC\\N=C25", "141%"],
  ["CC(=O)O[C@@]1(CC[C@H]2[C@@H]3\\C=C(C)/C4=C/C(=O)CC[C@]4(C)[C@H]3CC[C@]12C)C(C)=O", "101%"]
]}
